Assay: NCI Yeast Anticancer Drug Screen. Data for the CLN2oe strain (AID 163);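 note: 0% = growth of vehicle-only control cultures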
Conditions: S. cerevisiae CLN2oe strain, at 3.7 µM, stronger effect = higher value
This is part of a sample that, as a whole, favours compounds with a hit. Of some 79,000 tested, about 15% had one in any assay.
Measured growth inhibition, listed per entry for reference.
The figure you give is taken to be in %; do not add the unit.

                                   molecule  unit_label  reported_measurement
0      CC12C(=O)OC(=O)C(c3ccccc31)c1ccccc12           %                    -8
1               c1ccc2c(c1)sc1c3cnccc3ccc21           %                     8
2   CC(C)OC(=O)c1ccc(CCc2cc(O)c(Br)cc2O)cc1           %                    19
3                c1ccc(CCN2CCc3ccccc3C2)cc1           %                    -9
4  O=[N+]([O-])/C=C/c1cc(Cl)c(/C=C/[N+](=O)[O-])cc1Cl           %                    32
5                   CCCCCCSc1ncnc2[nH]ncc12           %                    -8

Please list growth inhibition recorded for the molecule Nc1ncc(-c2ccc(Br)cc2)s1
3

Please list growth inhibition recorded for the molecule Cc1cc(-c2cc(C)c(O)c(C(C)(C)C)c2)cc(C(C)(C)C)c1O
-62

Please list growth inhibition recorded for the molecule Nc1ccc2c(c1)C(=O)c1ccc(F)cc1-2
7

Please list growth inhibition recorded for the molecule Cc1sc2ccc3ccccc3c2[n+]1C
-64

Please list growth inhibition recorded for the molecule COc1ccc(C2C3=C(COC3=O)OC(C)(C)Oc3cc4c(cc32)OCO4)cc1OC (stereo not drawn)
17

Please list growth inhibition recorded for the molecule CCCCOC(=O)Nc1ccc(C)c(NC(=O)OCCCC)c1
-19
